The following compounds are listed with their measured MIC values.
test system: Staphylococcus aureus; test: Antimicrobial activity against methicillin-susceptible Staphylococcus aureus ATCC29213 measured after 24 hrs by CLSI protocol based microdilution method; format: functional

Solved cases below.
- compound: "Cn1c(C(=O)Nc2cccc(C(=O)NCc3ccccc3)c2)nc2ccccc21"
  targetEntity: "Staphylococcus aureus"
  MIC: "> 32 µg/mL"
- compound: "Cc1cccc(C(=O)NCCNC(=O)CCc2nc3ccccc3n2C)c1C"
  targetEntity: "Staphylococcus aureus"
  MIC: "> 32 µg/mL"
- compound: "Cc1c(N2CC(c3nc4ccccc4n3C)CC2=O)cccc1[N+](=O)[O-] (stereo not given)"
  targetEntity: "Staphylococcus aureus"
  MIC: "8 µg/mL"
- compound: "Cn1c(C2CC(=O)N(c3ccccc3)C2)nc2ccccc21 (stereo not given)"
  targetEntity: "Staphylococcus aureus"
  MIC: "> 32 µg/mL"
- compound: "Cc1c(Br)cccc1N1C[C@H](c2nc3ccccc3n2C)CC1=O"
  targetEntity: "Staphylococcus aureus"
  MIC: "> 32 µg/mL"

Give MIC for the following compound: Cc1cccc(NC(=O)CCNC(=O)c2nc3ccccc3n2C)c1C
> 32 µg/mL

Complete the entry with MIC for Cn1c(CCC(=O)NCCNC(=O)Cc2ccccc2)nc2ccccc21
> 32 µg/mL

Complete the entry with MIC for Cc1cccc(NC(=O)CCc2nc3ccccc3n2C)c1C
> 32 µg/mL

Dear colleague, please send me the reported MIC for Cn1c(CCC(=O)Nc2ccccc2)nc2ccccc21 when you can.
> 32 µg/mL

Quick one: give measured MIC for Cn1ccc(N2CC(c3nc4ccccc4n3C)CC2=O)n1 (stereo not given)
> 32 µg/mL

Answer with reported MIC of Cn1c(C2CC(=O)N(c3cccc(Cl)c3Br)C2)nc2ccccc21 (stereo not given)
8 µg/mL

Find the measured MIC of Cc1c(Br)cccc1N1CC(c2nc3ccccc3n2C(C)C)CC1=O (stereo not given) and report it.
8 µg/mL

Please give measured MIC of the following entry: Cn1c(C2CC(=O)N(c3cccc(F)c3Br)C2)nc2ccccc21 (stereo not given)
32 µg/mL

# return recorded MIC for input COc1ccc(N2CC(c3nc4ccccc4n3C)CC2=O)cc1OC (stereo not given)
> 32 µg/mL

Provide MIC value for the following compound: Cn1c(C2CC(=O)N(CCc3ccccc3)C2)nc2ccccc21 (stereo not given)
> 32 µg/mL
